Known MIC of a selection of molecules
- Test system: Mycoplasma
- METHOD NOTES: Antibacterial activity against Mycoplasma F3 assessed as inhibition of visible bacterial growth incubated for 24 hrs by CLSI based broth microdilution method
- Assay type: functional

{"columns": ["MOLECULAR STRING", "UNIT ABBREVIATION", "MIC"],
 "data": [
  ["C=C[C@]1(C)C[C@@H](OC(=O)CSc2nc(OC(=O)c3cccc(OC)c3)cs2)[C@]2(C)[C@H](C)CC[C@]3(CCC(=O)[C@H]32)[C@@H](C)[C@@H]1O", "µg/mL", 0.25],
  ["C=C[C@]1(C)C[C@@H](OC(=O)CSc2nc(OC(=O)c3ccc(C(C)(C)C)cc3)cs2)[C@]2(C)[C@H](C)CC[C@]3(CCC(=O)[C@H]32)[C@@H](C)[C@@H]1O", "µg/mL", 0.125],
  ["C=C[C@]1(C)C[C@@H](OC(=O)CSc2nc(OC(=O)c3cccc(Cl)c3)cs2)[C@]2(C)[C@H](C)CC[C@]3(CCC(=O)[C@H]32)[C@@H](C)[C@@H]1O", "µg/mL", 0.25],
  ["C=C[C@]1(C)C[C@@H](OC(=O)CSc2nc(OC(=O)c3cccc(Br)c3)cs2)[C@]2(C)[C@H](C)CC[C@]3(CCC(=O)[C@H]32)[C@@H](C)[C@@H]1O", "µg/mL", 0.25],
  ["C=C[C@]1(C)C[C@@H](OC(=O)CSc2nc(OC(=O)C(C)(C)CC)cs2)[C@]2(C)[C@H](C)CC[C@]3(CCC(=O)[C@H]32)[C@@H](C)[C@@H]1O", "µg/mL", 0.125]
]}

###

- METHOD NOTES: Cytotoxicity against human HEK293T cells assessed as cell viability incubated for 24 hrs by CCK-8 assay
- Type: toxicity, cell-based, HEK-293T

{"columns": ["MOLECULAR STRING", "IC50 at 24 h"],
 "data": [
  ["C=C[C@]1(C)C[C@@H](OC(=O)CSc2nc(OC(=O)c3ccc(C(C)(C)C)cc3)cs2)[C@]2(C)[C@H](C)CC[C@]3(CCC(=O)[C@H]32)[C@@H](C)[C@@H]1O", "> 200 µM"]
]}
